Values were extracted from the supplement of paper PMC10724198.

# protein stability index values compiled below
System: Saccharomyces cerevisiae;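 also: PSI is a weighted mean of sequencing reads over stability bins, variants kept only with over 10 reads, mCherry proximal and sfGFP distal, peptide attached via GGGS linker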
EXPERIMENT_NOTES: protein stability index of tFT-peptide fusion (C-terminal peptide) (PSI (0-1 scale)); higher = more stable (slower turnover)
CONDITION: genetic background: cdc34-1; temperature: 37 C
READOUT_LABEL: protein stability index

INSERT INTO measurements (polymer_sequence, readout_label, reported) VALUES
  ('NECLSSKWLRIC', 'protein stability index', 0.399),
  ('FSVSYFRLVRLC', 'protein stability index', 0.39),
  ('FVMLSFLVSSLP', 'protein stability index', 0.404),
  ('CFFSLLLLIFSV', 'protein stability index', 0.41),
  ('LLPYSLSLALRA', 'protein stability index', 0.395);
